What follows is a record of AC50 for Alpha-1A adrenergic receptor (Homo sapiens, UniProt P35348).

AC50 for CCC(=O)O[C@@H]1CC(=O)O[C@H](C)C/C=C/C=C/[C@H](OC(C)=O)[C@H](C)C[C@H](CC=O)[C@H](O[C@@H]2O[C@H](C)[C@@H](O[C@H]3C[C@@](C)(OC(C)=O)[C@@H](OC(=O)CC)[C@H](C)O3)[C@H](N(C)C)[C@H]2O)[C@H]1OC [MIOCAMYCIN] ?
> 30 µM

# AC50 lookup, item Oc1c(I)cc(Cl)c2cccnc12 [CLIOQUINOL]
> 30 µM

AC50 for CNC(=O)c1cc(Oc2ccc(NC(=O)Nc3ccc(Cl)c(C(F)(F)F)c3)c(F)c2)ccn1 [REGORAFENIB] ?
> 30 µM

Can you share its AC50? I mean this compound: "O=C(Nc1cccc2c(=O)cc(-c3nnn[nH]3)oc12)c1ccc(OCCCCc2ccccc2)cc1"
13.3 µM

Query (compound): CCC(=O)O[C@@H](O[P@](=O)(CCCCc1ccccc1)CC(=O)N1C[C@H](C2CCCCC2)C[C@H]1C(=O)O)C(C)C [FOSINOPRIL] ; field requested: AC50
> 30 µM

Further cases:
Consider the compound CO[C@@]1(NC(=O)CSCC#N)C(=O)N2C(C(=O)O)=C(CSc3nnnn3C)CS[C@@H]21 [CEFMETAZOLE] and give its measured AC50.
> 30 µM

// AC50 lookup, key: CN1CCN(CCCN2c3ccccc3Sc3ccc(S(=O)(=O)N(C)C)cc32)CC1 [THIOPROPERAZINE]
0.003 µM

Which measured AC50 value corresponds to O=C(Nc1nc(-c2cc(Cl)cs2)c(N2CCN(C3CCCCC3)CC2)s1)c1cnc(N2CCC(C(=O)O)CC2)c(Cl)c1 [AVATROMBOPAG] ?
> 30 µM

I would be grateful if you could share the reported AC50 for CN(C)c1cc(CNCC(C)(C)C)c(O)c2c1C[C@H]1C[C@H]3[C@H](N(C)C)C(O)=C(C(N)=O)C(=O)[C@@]3(O)C(O)=C1C2=O [OMADACYCLINE] .
> 30 µM

Please give the measured AC50 for this compound: C1CNCCN1 [PIPERAZINE]
> 30 µM

Given C[n+]1ccccc1/C=N/O [PRALIDOXIME] , state its recorded AC50.
> 30 µM

Name the recorded AC50 for "CCCCCCCC(=O)N[C@H](CN1CCCC1)[C@H](O)c1ccc2c(c1)OCCO2" .
> 30 µM

###

# test.system: Prostaglandin G/H synthase 1 (Rattus norvegicus, UniProt Q63921); note: assay procedure not described here
# Sequence (Q63921 whole entry): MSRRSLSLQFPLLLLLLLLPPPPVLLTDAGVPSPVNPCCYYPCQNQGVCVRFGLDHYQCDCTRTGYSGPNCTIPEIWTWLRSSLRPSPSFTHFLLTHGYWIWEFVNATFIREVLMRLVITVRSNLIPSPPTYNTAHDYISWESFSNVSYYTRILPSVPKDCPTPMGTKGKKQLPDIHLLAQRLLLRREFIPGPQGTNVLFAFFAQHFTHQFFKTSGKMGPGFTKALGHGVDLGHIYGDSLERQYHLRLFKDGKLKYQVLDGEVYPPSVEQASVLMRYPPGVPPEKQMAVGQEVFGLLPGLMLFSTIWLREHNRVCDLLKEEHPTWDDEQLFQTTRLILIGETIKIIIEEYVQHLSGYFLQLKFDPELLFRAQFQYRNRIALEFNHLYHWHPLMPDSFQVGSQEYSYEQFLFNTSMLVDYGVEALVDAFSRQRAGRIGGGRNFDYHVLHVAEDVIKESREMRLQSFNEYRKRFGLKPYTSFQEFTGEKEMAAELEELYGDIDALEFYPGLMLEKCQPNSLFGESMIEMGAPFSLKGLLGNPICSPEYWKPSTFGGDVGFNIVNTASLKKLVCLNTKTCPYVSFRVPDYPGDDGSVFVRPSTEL
# Assay type: functional
Quick list: AC50 per entry.

Completed entries (count: 5):
Give Prostaglandin G/H synthase 1 (Rattus norvegicus, UniProt Q63921) AC50 for "CO/N=C(\C(=O)N[C@@H]1C(=O)N2C(C(=O)O)=C(COC(N)=O)CS[C@H]12)c1ccco1"
> 30 µM

What reported AC50 corresponds to "CCCN(CCc1cccs1)[C@H]1CCc2c(O)cccc2C1" on Prostaglandin G/H synthase 1 (Rattus norvegicus, UniProt Q63921)?
> 30 µM

Query for Prostaglandin G/H synthase 1 (Rattus norvegicus, UniProt Q63921): what AC50 does the record show for "O=C1NC(=O)C(c2ccccc2)(c2ccccc2)N1" ?
> 30 µM

Hello, I am looking for reported AC50 with Prostaglandin G/H synthase 1 (Rattus norvegicus, UniProt Q63921) for "[H]/N=C(\N/C(=N/[H])NCCCCCCNC(=N)NC(=N)Nc1ccc(Cl)cc1)Nc1ccc(Cl)cc1" . Could you help?
> 10 µM

Please tell me: AC50 of "CN(C)c1cc(CNCC(C)(C)C)c(O)c2c1C[C@H]1C[C@H]3[C@H](N(C)C)C(O)=C(C(N)=O)C(=O)[C@@]3(O)C(O)=C1C2=O" , system Prostaglandin G/H synthase 1 (Rattus norvegicus, UniProt Q63921)?; note: assay procedure not described here
0.645 µM

The record that follows has no AC50 shown yet.
I'm curious: which AC50 was measured for "CN(c1nccc(=O)[nH]1)C1CCN(c2nc3ccccc3n2Cc2ccc(F)cc2)CC1" tested on Prostaglandin G/H synthase 1 (Rattus norvegicus, UniProt Q63921)?; note: assay procedure not described here
> 30 µM
